Tested on: MX-1 breast xenograft, nude mice, tumor weight T/C
protocolNotes: NCI In Vivo Anticancer Drug Screen. Data for tumor model Human Mammary Carcinoma MX-1 Xenograft (intrarenal inoculation) in NU/NU Swiss (nude) mice
assaySetup: endpoint: mean tumor weight change; dose: 25.0 mg/kg/injection; schedule: Q01DX010 (sc); vehicle: Klucel (hydroxypropylcellulose) (HPC); higher = larger tumour
Results filed as inconclusive are left out.
testReadout: T/C

molecule: [N-]=[N+]=C1N=CN=C1c1ncn[nH]1
testReadout: T/C
measuredValue: 76 % of control
//
molecule: C[C@]12C=CC(=O)C=C1CC[C@@H]1[C@@H]2[C@@H](O)C[C@@]2(C)[C@H]1CC[C@]2(O)C(=O)CO
testReadout: T/C
measuredValue: 67 % of control
//
molecule: Nc1ccccc1N
testReadout: T/C
measuredValue: 103 % of control
//
molecule: CC(=O)[O][Pb]([O]C(C)=O)([c]1ccccc1)[c]1ccccc1
testReadout: T/C
measuredValue: 105 % of control
//
molecule: CC/C(=C(\c1ccccc1)c1ccc(OCCN(C)C)cc1)c1ccccc1
testReadout: T/C
measuredValue: 171 % of control
//
molecule: CCCCc1ccc(-n2c(C)c(COC(=O)NC)c(COC(=O)NC)c2C)cc1
testReadout: T/C
measuredValue: 84 % of control
//
molecule: CN(C)c1nc(N(C)C)nc(N(C)C)n1
testReadout: T/C
measuredValue: 5 % of control
//
molecule: C=CCNc1ccc(C)cc1
testReadout: T/C
measuredValue: 97 % of control
//
molecule: C/C(=C\c1ccccc1)[N+](=O)[O-]
testReadout: T/C
measuredValue: 38 % of control
//
molecule: Cn1cnc([N+](=O)[O-])c1S(=O)(=O)NCN1CCOCC1
testReadout: T/C
measuredValue: 94 % of control

Hello, I would appreciate it if you could give T/C for each entry below.
1. Cc1ccc(S(=O)(=O)N/N=C/C(=O)O)cc1
2. CCCC(=O)OCc1cc(=O)n(C)c2c3c4c(cc12)c(C)cc(=O)n4CO3
3. CN(Cc1cnc2nc(N)nc(N)c2n1)c1c(Cl)cc(C(=O)NC(CCC(=O)O)C(=O)O)cc1Cl (stereo not drawn)
4. COC(=O)Nc1cccc(-c2nc3ccc(NC(=O)OC)cc3c(=O)n2-c2ccccc2)c1

["90 % of control", "67 % of control", "44 % of control", "87 % of control"]
